Test system: EGFR (human), P00533 [G719C]
experiment: KINOMEscan competition binding
reportedConditions: compound 10.0 µM
Reported kinase still bound, per cent of control values are given for each entry in this list.
measuredQuantity: kinase still bound, per cent of control (%)

>>> quantitativereadout("CCN1CCN(Cc2ccc(Nc3ncc4c(n3)N(C)c3ccccc3C(=O)N4C)cc2C(F)(F)F)CC1")
89
>>> quantitativereadout("CNC(=O)c1ccc(Nc2cc(Nc3ccccc3S(=O)(=O)C(C)C)c3cc[nH]c3n2)nc1")
100
>>> quantitativereadout("COc1ccc(N(C(=O)Oc2c(C)cccc2C)c2ccnc(Nc3ccc(N4CCN(C)CC4)cc3)n2)c(OC)c1")
0.25
>>> quantitativereadout("CCOc1cc(N2CCC(O)CC2)ccc1Nc1ncc2c(n1)N(C)c1ccccc1C(=O)N2C")
100
>>> quantitativereadout("COc1cc(C(=O)N2CCC(N3CCN(C)CC3)CC2)ccc1Nc1ncc2c(n1)N(C)c1ccccc1C(=O)N2C")
100
>>> quantitativereadout("CCCS(=O)(=O)Nc1ccc(F)c(C(=O)c2c[nH]c3ncc(Cl)cc23)c1F")
50
>>> quantitativereadout("CCN1CCN(Cc2ccc(NC(=O)c3ccc(C)c(/C=C/c4cnc5[nH]ccc5c4OC)c3)cc2C(F)(F)F)CC1")
0.05
>>> quantitativereadout("COc1ccc(N(C(=O)Oc2cc(C(=O)Nc3cccc(C(F)(F)F)c3)ccc2C)c2ccnc(Nc3ccc(N4CCN(C)CC4)cc3)n2)c(OC)c1")
23
>>> quantitativereadout("CNC(=O)Nc1ccc(-c2nc(N3CC4CCC(C3)O4)c3cnn(C4CCC5(CC4)OCCO5)c3n2)cc1")
80
